TESTED_SYSTEM: ALDH2*1/*1 (Homo sapiens)
Construct: His-tag (N); made in house; host or cells: E. coli BL21 (pTrcHis vector)
METHOD_NOTES: ALDH2 enzymatic activity, NADH accumulation at 340 nm, acetaldehyde substrate, wild type
Assay type: biochemical
TEST_CONDITIONS: 5 μM compound; relative to baseline enzymatic activity (100%)
EXPERIMENTAL_ENDPOINT: activity at 5 µM (%)
Provide the reading as a plain figure in %.

For reference, reported activity at 5 µM for COc1ccc(CNC(=O)c2cc(-c3c(CO)cccc3N(C)C)cnc2OCC2CC2)cc1F [AC15] stands at 106

For reference, reported activity at 5 µM for COc1ccc(CNC(=O)c2cc(-c3c(CO)cccc3N(C)C)ccc2OCC2CC2)cc1F [AC16] stands at 106

For reference, reported activity at 5 µM for COc1ccc(CNC(=O)c2cc(-c3ccccc3CO)ccc2OCC2CC2)cc1F [AC2] stands at 275

For reference, reported activity at 5 µM for COc1ccc(CNC(=O)c2cc(-c3ncccc3CO)ccc2OCC2CC2)cc1F [AC6] stands at 238

For reference, reported activity at 5 µM for COc1ccc(CNC(=O)c2cc(-c3ccncc3CO)ccc2OCC2CC2)cc1F [AC9] stands at 276

---

TESTED_SYSTEM: ALDH2*1/*2 (Homo sapiens, UniProt P05091, E504K)
Construct: His-tag; made in house; host or cells: E. coli BL21 (pETDuet-1 co-expression)
Sequence (P05091 18-517): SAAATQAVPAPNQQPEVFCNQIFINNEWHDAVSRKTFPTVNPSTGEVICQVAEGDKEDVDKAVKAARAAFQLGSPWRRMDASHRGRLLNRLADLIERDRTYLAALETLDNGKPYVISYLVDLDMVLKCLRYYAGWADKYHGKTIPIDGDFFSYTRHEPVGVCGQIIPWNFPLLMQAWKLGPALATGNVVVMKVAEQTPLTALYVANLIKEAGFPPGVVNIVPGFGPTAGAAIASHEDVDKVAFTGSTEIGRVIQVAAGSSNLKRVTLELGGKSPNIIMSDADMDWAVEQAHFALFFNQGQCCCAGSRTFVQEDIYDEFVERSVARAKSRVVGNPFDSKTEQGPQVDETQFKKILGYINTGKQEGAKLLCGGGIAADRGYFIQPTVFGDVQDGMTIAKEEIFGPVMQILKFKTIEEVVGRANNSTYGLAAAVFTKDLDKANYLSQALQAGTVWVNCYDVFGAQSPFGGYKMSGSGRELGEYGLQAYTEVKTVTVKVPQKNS
Sequence (P05091 18-517 E504K): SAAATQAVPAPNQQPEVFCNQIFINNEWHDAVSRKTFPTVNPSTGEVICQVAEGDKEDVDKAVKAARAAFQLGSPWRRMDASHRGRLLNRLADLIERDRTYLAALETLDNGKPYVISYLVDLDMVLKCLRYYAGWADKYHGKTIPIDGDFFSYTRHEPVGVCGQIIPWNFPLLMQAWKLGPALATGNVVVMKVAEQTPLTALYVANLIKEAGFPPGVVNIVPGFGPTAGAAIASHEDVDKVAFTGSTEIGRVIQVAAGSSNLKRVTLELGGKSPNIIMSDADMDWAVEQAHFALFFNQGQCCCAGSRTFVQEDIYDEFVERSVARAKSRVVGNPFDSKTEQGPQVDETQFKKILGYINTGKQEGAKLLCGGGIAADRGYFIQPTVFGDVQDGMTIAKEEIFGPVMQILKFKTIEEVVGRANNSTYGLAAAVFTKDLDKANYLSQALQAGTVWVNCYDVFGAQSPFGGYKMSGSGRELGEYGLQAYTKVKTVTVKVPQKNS
METHOD_NOTES: ALDH2 enzymatic activity, NADH accumulation at 340 nm, acetaldehyde substrate, heterozygous form
Format: biochemical
TEST_CONDITIONS: 20 μM compound; relative to baseline enzymatic activity (100%)
EXPERIMENTAL_ENDPOINT: activity at 20 µM (%)
Provide the reading as a plain figure in %.

For reference, reported activity at 20 µM for COc1ccc(CNC(=O)c2cc(-c3ccc(F)cc3CO)ccc2OCC2CC2)cc1F [AC23] stands at 196

For reference, reported activity at 20 µM for COc1ccc(CNC(=O)c2cc(-c3c(CO)cccc3N(C)C)ccc2OCC2CC2)cc1F [AC16] stands at 138

For reference, reported activity at 20 µM for COc1ccc(CNC(=O)c2cc(-c3cc(F)ccc3CO)cnc2OCC2CC2)cc1F [AC20] stands at 93

For reference, reported activity at 20 µM for COc1ccc(CNC(=O)c2cc(-c3ccncc3CO)cnc2OCC2CC2)cc1F [AC12] stands at 350

For reference, reported activity at 20 µM for COc1ccc(CNC(=O)c2cc(-c3ccccc3CO)ccc2OCC2CC2)cc1F [AC2] stands at 471

For reference, reported activity at 20 µM for COc1ccc(CNC(=O)c2cc(-c3ccc(F)cc3CO)cnc2OCC2CC2)cc1F [AC4] stands at 423

For reference, reported activity at 20 µM for COc1ccc(CNC(=O)c2cc(-c3cccnc3CO)ccc2OCC2CC2)cc1F [AC7] stands at 434

For reference, reported activity at 20 µM for COc1ccc(CNC(=O)c2cc(-c3cscc3CO)ccc2OCC2CC2)cc1F [AC29] stands at 423

For reference, reported activity at 20 µM for COc1ccc(CNC(=O)c2cc(-c3cccc(F)c3CO)ccc2OCC2CC2)cc1F [AC21] stands at 250
